src = patent US20120021972A1

Entries and their inhibition of cAMP production, 1 µM
measured_target: human glucagon receptor (human, UniProt P47871 26-477)
experiment: cell-based or functional assay
Starred links: 1 amine or outer side, 2 acyl side, 3 side chain; linkers in the order of their positions; H or OH if unused. Non-standard residues stand in square brackets, D forms with d. No end group written: not given here. *: point of attachment. NMe2F‑APPA = N-methyl-2-amino-5-(2-fluorophenyl)pentanoic acid, CN([C@@H](CCCc1ccccc1F)C(=O)[*:2])[*:1]; AMCB = 2-amino-5-(4-chloro-2-methylphenyl)pentanoic acid, Cc1cc(Cl)ccc1CCC[C@H](N[*:1])C(=O)[*:2]; Bip(2'-Et-4'-OMe) = CCc1cc(OC)ccc1-c1ccc(C[C@H](N)C(=O)O)cc1; Leu(5,5,5,5',5',5'-F6) = N[C@@H](CC(C(F)(F)F)C(F)(F)F)C(=O)O; 2F‑APPA = 2-amino-5-(2-fluorophenyl)pentanoic acid; αMePhe(2-F) = C[C@](N)(Cc1ccccc1F)C(=O)O; NMeBip(OMe) = N-methylated Bip(OMe); hhPhe = N[C@@H](CCCc1ccccc1)C(=O)O; NMeD = CN[C@@H](CC(=O)O)C(=O)O; aThr = C[C@H](O)[C@H](N)C(=O)O; NMeAPPA = not defined here; CNB = not defined here; Aib = CC(C)(N)C(=O)O; Moc = COC(=O)*
readout_kind: inhibition of cAMP production, 1 µM (pmol/ml/µg prt)

1) Ac-H[Aib][CNB]GT[αMePhe(2-F)]TSD[Bip(2'-Et-4'-OMe)][hhPhe] (reading uncertain) [Seq. ID. No. 205: CH3CO-H-Aib-(CNB)-GT-(α-Me-2F-Phe)-TSD-Bip(OMe)-(APPA)] : 0
2) H[Aib]QG[aThr][αMePhe(2-F)][aThr]SD[Bip(2'-Et-4'-OMe)][hhPhe] (also: thioamide bonds between residues 9-10 and 10-11) [Seq. ID. No. 177: H-Aib-QG-T(allo)-(α-Me-2F-Phe)-T(allo)-SD-(C═S)-Bip(OMe)-(C═S)-(APPA)] : 0
3) H[Aib][Leu(5,5,5,5',5',5'-F6)]GT[αMePhe(2-F)]TSD[Bip(2'-Et-4'-OMe)][AMCB] [Seq. ID. No. 237: H-Aib-(Hfl)-GT-(α-Me-2F-Phe)-TSD-Bip(OMe)-(AMCB)] : 18
4) Moc-H[Aib]QG[aThr][αMePhe(2-F)][aThr]S[NMeD][NMeBip(OMe)][NMeAPPA] (reading uncertain) : 4
5) H[Aib][CNB]G[aThr][αMePhe(2-F)][aThr]SD[NMeBip(OMe)][NMe2F‑APPA] (reading uncertain) [Seq. ID. No. 144: H-Aib-(CNB)-G-T(allo)-(α-Me-2F-Phe)-T(allo)-SD-((NMe)Bip(OMe))-((NMe)(2F-APPA))] : 0
6) H[Aib][CNB]G[aThr][αMePhe(2-F)][aThr]SD[Bip(2'-Et-4'-OMe)][2F‑APPA] (reading uncertain; also: reduced (CH2) bonds Z9-Z10 and Z10-Z11) [Seq. ID. No. 204: H-Aib-(CNB)-G-T(allo)-(α-Me-2F-Phe)-T(allo)-SD-(CH2)-Bip(OMe)-(CH2)-(2F-APPA)] : 0
